Measured pIC50, listed per entry for reference.
molecular target: BChE (E.C. 3.1.1.8) (Equus caballus, UniProt P81908); test: biochemical; conditions: BChE from horse serum; Ellman method; means ± SD of triplicate independent experiments
Sequence (P81908 whole entry): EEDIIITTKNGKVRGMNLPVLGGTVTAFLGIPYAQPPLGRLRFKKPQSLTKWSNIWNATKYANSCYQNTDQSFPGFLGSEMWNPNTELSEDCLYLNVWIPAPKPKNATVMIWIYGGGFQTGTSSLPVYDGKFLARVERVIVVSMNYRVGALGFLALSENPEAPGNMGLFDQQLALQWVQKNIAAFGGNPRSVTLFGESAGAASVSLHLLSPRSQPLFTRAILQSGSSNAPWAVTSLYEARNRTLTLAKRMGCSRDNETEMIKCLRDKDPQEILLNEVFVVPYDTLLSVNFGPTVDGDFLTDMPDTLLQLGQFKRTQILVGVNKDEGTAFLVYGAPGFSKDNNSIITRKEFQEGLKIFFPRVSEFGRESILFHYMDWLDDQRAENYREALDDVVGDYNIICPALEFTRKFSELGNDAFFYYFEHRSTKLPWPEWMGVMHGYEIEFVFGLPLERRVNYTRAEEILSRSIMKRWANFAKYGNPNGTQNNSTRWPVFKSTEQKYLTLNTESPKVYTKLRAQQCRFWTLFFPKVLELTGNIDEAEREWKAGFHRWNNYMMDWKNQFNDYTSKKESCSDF
Just so you know, pIC50 here is -log10 of the concentration in molar units; reply with that number alone.

A selection of reference data follows.
INSERT INTO measurements (query_smiles, system, obs_value) VALUES
  ('COc1ccc(Cl)cc1-c1ccc2nc3n(c(=O)c2c1)CCCC3', 'BChE (E.C. 3.1.1.8) (Equus caballus, UniProt P81908)', 4.33),
  ('O=c1c2cc(-c3ccc(F)c(Cl)c3)ccc2nc2n1CCC2', 'BChE (E.C. 3.1.1.8) (Equus caballus, UniProt P81908)', 4.54),
  ('Cc1cccc(-c2ccc3nc4n(c(=O)c3c2)CCC4)c1', 'BChE (E.C. 3.1.1.8) (Equus caballus, UniProt P81908)', 4.64),
  ('O=c1c2cc(-c3ccccc3)ccc2nc2n1CCC2', 'BChE (E.C. 3.1.1.8) (Equus caballus, UniProt P81908)', 4.64),
  ('COc1ccc(Cl)cc1-c1ccc2nc3n(c(=O)c2c1)CCC3', 'BChE (E.C. 3.1.1.8) (Equus caballus, UniProt P81908)', 4.54);

Short answer for O=c1c2cc(-c3ccccc3C(F)(F)F)ccc2nc2n1CCCC2 : pIC50 was 4.36

Short answer for Cc1cccc(-c2ccc3nc4n(c(=O)c3c2)CCCC4)c1 : pIC50 was 4.97

Short answer for COc1cccc(-c2ccc3nc4n(c(=O)c3c2)CCCC4)c1 : pIC50 was 4.37

----------
Measured Selectivity (BChE/AChE), listed per entry for reference.
molecular target: AChE (E.C. 3.1.1.7) (Electrophorus electricus); experiment: biochemical; conditions: BChE IC50/AChE IC50
Sequence (O42275 24-633): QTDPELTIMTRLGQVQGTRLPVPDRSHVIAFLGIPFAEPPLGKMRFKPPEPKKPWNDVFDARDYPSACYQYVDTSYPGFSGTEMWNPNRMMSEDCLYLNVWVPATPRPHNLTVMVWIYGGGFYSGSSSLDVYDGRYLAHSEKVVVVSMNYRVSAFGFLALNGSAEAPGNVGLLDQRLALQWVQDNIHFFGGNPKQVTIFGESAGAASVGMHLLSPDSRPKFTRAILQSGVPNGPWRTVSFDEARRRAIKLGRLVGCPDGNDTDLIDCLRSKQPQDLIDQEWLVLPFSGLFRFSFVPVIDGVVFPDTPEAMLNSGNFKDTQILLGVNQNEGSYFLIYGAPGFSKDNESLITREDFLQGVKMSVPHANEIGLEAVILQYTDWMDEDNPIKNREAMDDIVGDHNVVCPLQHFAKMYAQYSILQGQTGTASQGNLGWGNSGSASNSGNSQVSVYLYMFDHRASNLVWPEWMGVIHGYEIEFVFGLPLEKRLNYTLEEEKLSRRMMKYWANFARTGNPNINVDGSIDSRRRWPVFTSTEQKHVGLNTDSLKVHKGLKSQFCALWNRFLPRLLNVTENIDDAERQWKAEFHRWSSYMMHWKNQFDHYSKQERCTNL
Would you mind answering with just the numeric figure?

INSERT INTO results (query_smiles, obs_value) VALUES
  ('O=c1c2cc(-c3ccc(F)cc3)ccc2nc2n1CCC2', 0.5),
  ('Cc1cccc(-c2ccc3nc4n(c(=O)c3c2)CCC4)c1', 0.8),
  ('Cc1cccc(-c2ccc3nc4n(c(=O)c3c2)CCCC4)c1', 1.7),
  ('O=c1c2cc(-c3cccc(Cl)c3)ccc2nc2n1CCCC2', 1.1);

Short answer for COc1cccc(-c2ccc3nc4n(c(=O)c3c2)CCCC4)c1 : Selectivity (BChE/AChE) was 1

Short answer for COc1cccc(-c2ccc3nc4n(c(=O)c3c2)CCC4)c1 : Selectivity (BChE/AChE) was 2.4

Short answer for O=c1c2cc(-c3cccc(Cl)c3)ccc2nc2n1CCC2 : Selectivity (BChE/AChE) was 0.8

Short answer for O=c1c2cc(-c3ccc(F)c(Cl)c3)ccc2nc2n1CCC2 : Selectivity (BChE/AChE) was 4.8

Short answer for O=c1c2cc(-c3ccccc3)ccc2nc2n1CCC2 : Selectivity (BChE/AChE) was 0.64

Short answer for COc1ccc(Cl)cc1-c1ccc2nc3n(c(=O)c2c1)CCC3 : Selectivity (BChE/AChE) was 2.0

----------
target: AChE (E.C. 3.1.1.7) (Electrophorus electricus)
Param label: returns MET when IC50 < 30 µM, returns NOT MET otherwise, including exact equality.

# example entries with known answers
INSERT INTO assay_data (compound, assigned_class) VALUES
  ('O=c1c2cc(-c3cccc4ccccc34)ccc2nc2n1CCC2 [3m]', 'NOT MET'),
  ('O=c1c2cc(-c3ccc(F)cc3)ccc2nc2n1CCCC2 [4b]', 'NOT MET'),
  ('O=c1c2cc(-c3cccc(Cl)c3)ccc2nc2n1CCCC2 [4g]', 'MET'),
  ('O=c1c2cc(-c3ccc(Cl)cc3)ccc2nc2n1CCC2 [3a]', 'NOT MET');

In: I'd appreciate it if you could check whether COc1cccc(-c2ccc3nc4n(c(=O)c3c2)CCC4)c1 [3h] has IC50 smaller than 30 µM.
Out: MET

In: I'd appreciate it if you could check whether COc1ccc(-c2ccc3nc4n(c(=O)c3c2)CCC4)cc1 [3d] has IC50 smaller than 30 µM.
Out: MET

In: I'd appreciate it if you could check whether O=c1c2cc(-c3ccccc3)ccc2nc2n1CCC2 [3n] has IC50 smaller than 30 µM.
Out: NOT MET

In: I'd appreciate it if you could check whether O=c1c2cc(-c3cccc(Cl)c3)ccc2nc2n1CCC2 [3g] has IC50 smaller than 30 µM.
Out: MET

In: I'd appreciate it if you could check whether COc1ccc(Cl)cc1-c1ccc2nc3n(c(=O)c2c1)CCCC3 [4l] has IC50 smaller than 30 µM.
Out: NOT MET

In: I'd appreciate it if you could check whether CC(C)(C)c1ccc(-c2ccc3nc4n(c(=O)c3c2)CCC4)cc1 [3e] has IC50 smaller than 30 µM.
Out: NOT MET

In: I'd appreciate it if you could check whether O=c1c2cc(-c3ccc(Cl)cc3)ccc2nc2n1CCCC2 [4a] has IC50 smaller than 30 µM.
Out: NOT MET

# credit: paper PMC12250785
